target: human Kv1.5 channel (Homo sapiens, UniProt P22460); experiment: Test A: Rb+ efflux assay; settings: CHO cells stably transfected with cDNA for human Kv1.5
Sequence (P22460 whole entry): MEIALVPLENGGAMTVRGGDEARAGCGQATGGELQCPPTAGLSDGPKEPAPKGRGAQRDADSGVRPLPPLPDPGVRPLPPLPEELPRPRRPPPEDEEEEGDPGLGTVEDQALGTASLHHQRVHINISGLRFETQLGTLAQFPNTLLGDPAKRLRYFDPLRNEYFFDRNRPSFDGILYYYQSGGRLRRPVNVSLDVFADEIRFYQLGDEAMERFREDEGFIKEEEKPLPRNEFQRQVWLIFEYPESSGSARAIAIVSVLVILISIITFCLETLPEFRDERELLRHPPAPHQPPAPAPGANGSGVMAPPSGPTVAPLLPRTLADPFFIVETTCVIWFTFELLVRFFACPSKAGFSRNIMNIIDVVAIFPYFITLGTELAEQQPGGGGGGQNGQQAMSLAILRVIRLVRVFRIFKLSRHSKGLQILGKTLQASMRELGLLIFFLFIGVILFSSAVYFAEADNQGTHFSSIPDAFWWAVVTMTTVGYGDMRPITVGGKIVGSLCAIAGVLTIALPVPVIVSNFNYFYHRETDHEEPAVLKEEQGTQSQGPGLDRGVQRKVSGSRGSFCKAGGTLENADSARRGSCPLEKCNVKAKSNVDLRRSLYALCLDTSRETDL
Lab note: cut-off is 2 µM. Strictly less in IC50 is Met. Exactly 2 µM or more is Not met.

CC(c1ccccc1)N1C(=O)c2ccccc2C1C(=O)NCc1cccc(OC(F)F)c1 (centres unmarked) | Not met
O=C(NCCCC(F)(F)F)C1c2ccccc2C(=O)N1Cc1ccccc1-c1ccccc1 (centres unmarked) | Met
O=C(NCc1ccccc1)C1c2ccccc2C(=O)N1Cc1cc(-c2ccccc2)no1 (centres unmarked) | Met
C[C@H](c1ccccc1)N1C(=O)c2cc(Br)ccc2C1C(=O)NCc1ccccc1 (some centres unmarked) | Not met
CC(CN1C(=O)c2ccccc2C1C(=O)NCc1ccc(C(F)(F)F)nc1)c1ccc(Cl)cc1 (centres unmarked) | Met

----------
target: human Kv1.5 channel (Homo sapiens, UniProt P22460); assay: Test A: Rb+ efflux assay; settings: CHO cells stably transfected with cDNA for human Kv1.5
pIC50: −log10 of the molar value.
Entry flag: Satisfied if pIC50 reaches 6; Not satisfied if it does not.

CC(CN1C(=O)c2ccc(Cl)cc2C1C(=O)NCc1ccc(C(F)(F)F)nc1)c1ccc(Cl)cc1 (centres unmarked) | Satisfied
O=C(NCc1ccccc1)C1c2ccccc2C(=O)N1CCC1=CCCCC1 (centres unmarked) | Not satisfied
CCCCN(Cc1ccccc1)C(=O)C1c2ccccc2C(=O)N1CCc1ccc(Cl)cc1 (centres unmarked) | Satisfied
CC(C)(C)NC(=O)C1c2c(O)cccc2C(=O)N1Cc1ccccc1-c1ccccc1 (centres unmarked) | Not satisfied
O=C(NCc1ccc(F)cc1)C1c2ccccc2C(=O)N1C(c1ccncc1)c1ccc(Cl)cc1 (centres unmarked) | Not satisfied
CC(C)(C)NC(=O)C1c2ccccc2C(=O)N1Cc1ccccc1-c1ccc(F)cc1 (centres unmarked) | Not satisfied
Cc1c(O)ccc2c1C(=O)N(Cc1ccccc1Oc1ccc(C(F)(F)F)cc1)C2C(=O)NC(C)(C)C (centres unmarked) | Not satisfied
CNC(=O)C1c2cc(Br)ccc2C(=O)N1Cc1ccccc1C1CCCC1 (centres unmarked) | Not satisfied
CC(CN1C(=O)c2ccccc2C1C(=O)NCc1ccc(F)cc1)c1ccc(Cl)cc1 (centres unmarked) | Not satisfied
CC(C)(C)CN1C(=O)c2ccccc2C1C(=O)NCc1cccc(Cl)c1 (centres unmarked) | Not satisfied
CC(c1ccccc1)N1C(=O)c2ccccc2C1C(=O)NCc1ccccc1 (centres unmarked) | Not satisfied
N#Cc1cccc(CNC(=O)C2c3ccccc3C(=O)N2Cc2cccc(Cl)c2)c1 (centres unmarked) | Not satisfied
CCCCNC(=O)C1c2ccccc2C(=O)N1CC(C)(C)c1ccc(Cl)cc1 (centres unmarked) | Satisfied
N#Cc1ccc(CNC(=O)C2c3ccccc3C(=O)N2Cc2ccccc2-c2ccccc2)cc1 (centres unmarked) | Not satisfied

----------
biological target: human Kv1.5 channel (Homo sapiens); test: Test A: Rb+ efflux assay; type: cell-based; details: CHO cells stably transfected with cDNA for human Kv1.5
pIC50: −log10 of the molar value.
Entry flag: y if pIC50 reaches 6; n if it does not.

Cc1c(OCF)ccc2c1C(=O)N(CC(C)c1ccc(Cl)cc1)C2C(=O)NC(C)(C)C (stereo not shown) | n
O=C(NCc1ccc(F)cc1)C1c2ccccc2C(=O)N1C(c1ccccc1)c1ccccc1 (stereo not shown) | n
O=C(NCCCC(F)(F)F)C1c2cc(Cl)ccc2C(=O)N1Cc1ccccc1C(F)(F)F (stereo not shown) | n
CC(C)(C)NC(=O)C1c2cc(C#N)ccc2C(=O)N1Cc1ccccc1-c1ccccc1 (stereo not shown) | n
CC(C)(C)NC(=O)C1c2ccccc2C(=O)N1Cc1ccc(F)cc1-c1ccccc1 (stereo not shown) | n
CC(CN1C(=O)c2ccc(Cl)cc2C1C(=O)NCc1ccccc1)c1ccc(Cl)cc1 (stereo not shown) | y
CCCCNC(=O)C1c2cc(F)ccc2C(=O)N1CC(C)c1ccc(Cl)cc1 (single isomer, unassigned) | n
CC(C)(CO)CN1C(=O)c2ccc(Cl)cc2C1C(=O)NCc1cccc(OC(F)F)c1 (stereo not shown) | y

----------
target: human Kv1.5 channel (Homo sapiens); test: Test A: Rb+ efflux assay; details: CHO cells stably transfected with cDNA for human Kv1.5
Assay metric: IC50 (nM)

CC(C)(C)NC(=O)C1c2cc(Cl)ccc2C(=O)N1Cc1ccccc1-c1ccccc1 (centres unmarked) | 1600
CC(CN1C(=O)c2ccccc2C1C(=O)NCc1ccccc1Cl)c1ccc(Cl)cc1 (centres unmarked) | 750
O=C(NCCCC(F)(F)F)C1c2cc(F)ccc2C(=O)N1Cc1ccccc1-c1ccccc1 (centres unmarked) | 2700
O=C(NCc1ccccc1)C1c2ccccc2C(=O)N1CCc1ccc(Cl)cc1 (centres unmarked) | 560
CC(CN1C(=O)c2ccccc2C1C(=O)NCc1ccc2c(c1)OC(F)(F)O2)c1ccc(Cl)cc1 (centres unmarked) | 580

----------
Measured IC50 accompanies every entry in the list below.
molecular target: human Kv1.5 channel (Homo sapiens); experiment: Test A: Rb+ efflux assay; details: CHO cells stably transfected with cDNA for human Kv1.5
Assay metric: IC50 (nM)

CC(C)(C)NC(=O)C1c2ccccc2C(=O)N1Cc1ccc(F)cc1-c1ccc(F)cc1 (stereo not drawn) | 9300
CN(C)c1ccc(CNC(=O)C2c3ccccc3C(=O)N2Cc2cc(C(F)(F)F)cc(C(F)(F)F)c2)cc1 (stereo not drawn) | 1800
CC(CN1C(=O)c2ccc(Cl)cc2C1C(=O)NC(C)(C)C)c1ccc(Cl)cc1 (stereo not drawn) | 910
CC(CN1C(=O)c2ccccc2C1C(=O)NCCCC(F)(F)F)c1ccc(Cl)cc1 (stereo not drawn) | 1800
CC(CN1C(=O)c2ccccc2C1C(=O)NCCc1c[nH]c2ccccc12)c1ccc(Cl)cc1 (stereo not drawn) | 620
CC(C)(C)NC(=O)C1c2cc(Cl)ccc2C(=O)N1C(c1ccccc1)c1ccccc1 (stereo not drawn) | 2800
O=C(NCc1ccccc1)C1c2cc(F)ccc2C(=O)N1Cc1ccccc1-c1ccccc1 (stereo not drawn) | 1000
CCCNC(=O)C1c2cc(F)ccc2C(=O)N1Cc1ccccc1-c1ccccc1 (stereo not drawn) | 2800
CC(C)(C)NC(=O)C1c2cc(Br)ccc2C(=O)N1Cc1ccccc1-c1ccccc1 (stereo not drawn) | 2400

----------
Measured IC50 accompanies every entry in the list below.
molecular target: human Kv1.5 channel (Homo sapiens, UniProt P22460); test: Test A: Rb+ efflux assay; details: CHO cells stably transfected with cDNA for human Kv1.5
Assay metric: IC50 (nM)

CCCCNC(=O)C1c2cc(F)ccc2C(=O)N1CC(C)c1ccc(Cl)cc1 (single isomer, unassigned) | 500
COc1ccc2c(c1C)C(=O)N(Cc1ccccc1-c1ccccc1)C2C(=O)NC(C)(C)C (stereo not drawn) | 2200
CC(C)(C)NC(=O)C1c2ccccc2C(=O)N1Cc1ccccc1-c1ccc(F)c(F)c1 (stereo not drawn) | 2200
COc1ccc2c(c1OC)C(=O)N(CC(C)c1ccc(Cl)cc1)C2C(=O)NCc1ccccc1 (stereo not drawn) | 610
C[C@H](c1ccccc1)N1C(=O)c2ccc(Br)cc2C1C(=O)NCc1ccccc1 (stereo partly drawn) | 210
CC(C)(C)CN1C(=O)c2ccccc2C1C(=O)NCc1ccc(Cl)c(Cl)c1 (stereo not drawn) | 2500

----------
molecular target: human Kv1.5 channel (Homo sapiens, UniProt P22460); experiment: Test A: Rb+ efflux assay; details: CHO cells stably transfected with cDNA for human Kv1.5
Lab note: cut-off is 2 µM. Strictly less in IC50 is T. Exactly 2 µM or more is F.

C[C@H](c1ccccc1)N1C(=O)c2ccc(F)cc2C1C(=O)NCc1ccccc1 (some centres unmarked) | T
O=C(NCCCC(F)F)C1c2ccccc2C(=O)N1C(c1ccccc1)c1ccccc1 (centres unmarked) | F
CC(C)(C)NC(=O)C1c2ccccc2C(=O)N1Cc1ccccc1-c1ccc(F)c(F)c1 (single isomer, unassigned) | F
CC(C)(CO)CN1C(=O)c2ccc(F)cc2C1C(=O)NCc1cccc(C(F)(F)F)c1 (centres unmarked) | T
CC(C)(C)CN1C(=O)c2ccccc2C1C(=O)NCc1cccc(OC(F)F)c1 (centres unmarked) | T
C[C@@H](c1ccccc1)N1C(=O)c2ccc(Cl)cc2C1C(=O)NCc1ccccc1 (some centres unmarked) | F
CC(C)(CO)CN1C(=O)c2ccc(F)cc2C1C(=O)NCc1cccc(OC(F)F)c1 (centres unmarked) | T
Cc1c(OCF)ccc2c1C(=O)N(Cc1ccccc1-c1ccccc1)C2C(=O)NC(C)(C)C (centres unmarked) | T
CCC(c1ccccc1)N1C(=O)c2ccccc2C1C(=O)NCc1ccccc1 (centres unmarked) | T
Cc1c(O)ccc2c1C(=O)N(Cc1ccccc1-c1ccccc1)C2C(=O)NC(C)(C)C (single isomer, unassigned) | F

----------
target: human Kv1.5 channel (Homo sapiens, UniProt P22460); experiment: Test A: Rb+ efflux assay; conditions: CHO cells stably transfected with cDNA for human Kv1.5
Measured log10(IC50) accompanies every entry in the list below.
Assay metric: log10(IC50) (log10 of the value in µM)

CC(CN1C(=O)c2ccc(Cl)cc2C1C(=O)NCc1cccnc1)c1ccc(Cl)cc1 (stereo not drawn) | -0.17
CCNC(=O)C1c2cc(Cl)ccc2C(=O)N1Cc1ccccc1-c1ccccc1 (stereo not drawn) | 0.00
CCCNC(=O)C1c2cc(Cl)ccc2C(=O)N1Cc1ccccc1-c1ccccc1 (stereo not drawn) | 0.04
O=C(NCc1ccccc1)C1c2ccccc2C(=O)N1Cc1ccccc1-c1ccccc1 (stereo not drawn) | 0.00
